src = the supplement of paper PMC8728848

molecular target: Gal(b1-3)GlcNAc(a1-6)Gal(b1-4)GlcNAc; experiment: glycan array binding signal (z-score within array); higher = stronger binding; conditions: glycan notation: IUPAC condensed, linker removed
The entries come from a sample that favours the strongest signals as a whole.
RESULT_TYPE: glycan array binding signal (z-score)
Reply: number alone, nothing else.

Task item: Can you look up the measured glycan array binding signal (z-score) of OVGAL11 (Ovis aries), AAF64320 (protein) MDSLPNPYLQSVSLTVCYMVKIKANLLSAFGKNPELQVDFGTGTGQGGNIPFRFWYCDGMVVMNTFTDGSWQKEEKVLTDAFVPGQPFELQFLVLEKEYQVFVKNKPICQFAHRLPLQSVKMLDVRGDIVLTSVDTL for me?
Reply: -0.11

Task item: Please give the measured glycan array binding signal (z-score) for this binder: GSL-I-B4 (Griffonia simplicifolia) (protein) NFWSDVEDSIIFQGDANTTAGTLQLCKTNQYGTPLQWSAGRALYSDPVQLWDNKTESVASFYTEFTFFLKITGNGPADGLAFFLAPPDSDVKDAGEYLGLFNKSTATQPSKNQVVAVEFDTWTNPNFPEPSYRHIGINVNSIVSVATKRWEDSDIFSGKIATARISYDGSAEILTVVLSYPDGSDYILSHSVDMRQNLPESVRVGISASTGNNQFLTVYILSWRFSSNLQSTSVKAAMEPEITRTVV
Reply: -0.155

Task item: // returns reported glycan array binding signal (z-score) for input Gal 4 (Canis lupus) (protein) MAYVPAPGYQPTYNPTLPYNKPIPGGLSVGMSVYIQGITSEHMRRFCVNFVAGAHPGSDIAFHFNPRFDGWDKVVFNSHLGGKWGSEEKKRSMPFRKGTHFELVFMVLAEHYKVVVNGNPFYEFGHRLPLQLVTHLQVEGDVELQSINFIGGTQPLGQGPGHTQQQPSSLPTMEGPPVFNPPVPFRKRLQGGLTVRRTVIIKGFVPFTSKSFVINFMVESSGDLALHINPRLTEGLVVRNSCLNGSWGSEDRKLSYNPFIPGQFFDLSIRCGMDRFKVYANGQHLFDFSHRLLALQNVDMLEINGDVTLSYIQV
Reply: -0.137

Task item: Give the measured glycan array binding signal (z-score) of ECA (Erythrina cristagalli), P83410 (protein) VETISFSFSEFEPGNDNLTLQGAALITQSGVLQLTKINQNGMPAWDSTGRTLYTKPVHMWDSTTGTVASFETRFSFSIEQPYTRPLPADGLVFFMGPTKSKPAQGYGYLGVFNNSKQDNSYQTLAVEFDTFSNPWDPPQVPHIGIDVNSIRSIKTQPFQLDNGQVANVVIKYDAPSKILHVVLVYPSSGAIYTIAEIVDVKQVLPDWVDVGLSGATGAQRDAAETHDVYSWSFQASLPE .
Reply: -0.325

Task item: Sample ArathEULS3 TAP (Arabidopsis thaliana) (protein) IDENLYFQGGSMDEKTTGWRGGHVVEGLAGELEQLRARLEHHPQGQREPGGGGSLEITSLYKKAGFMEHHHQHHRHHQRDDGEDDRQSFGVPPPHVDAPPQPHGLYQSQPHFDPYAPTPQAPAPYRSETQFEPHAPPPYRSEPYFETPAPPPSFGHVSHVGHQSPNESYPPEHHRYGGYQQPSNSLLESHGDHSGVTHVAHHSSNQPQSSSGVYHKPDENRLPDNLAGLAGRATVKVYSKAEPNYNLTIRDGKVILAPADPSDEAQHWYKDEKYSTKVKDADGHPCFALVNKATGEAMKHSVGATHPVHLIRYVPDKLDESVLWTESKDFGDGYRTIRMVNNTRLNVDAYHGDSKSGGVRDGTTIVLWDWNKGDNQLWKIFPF — what was its glycan array binding signal (z-score)?
Reply: -0.499

Task item: Report glycan array binding signal (z-score) for ASAL (Allium sativum), P83886 (protein) MGRTTSSPKAMMRIATVAAILTILASTCMARNVLTNGEGLYAGQSLDVEQYKFIMQDDCNLVLYEYSTPIWASNTGVTGKNGCRAVMQRDGNFVVYDVNGRPVWASNSVRGNGNYILVLQKDRNVVIYGSDIWSTGTYRRSVGGAVVMAMNGTVDGGSVIGPVVVNQNVTAAIRKVGTGAA please.
Reply: -0.252

Task item: Entry under review: SGC, Q9M345 (protein) QNLNFTYNGFHPPLTDISLQGLATVTPNGLLKLTNTSVQKTGHAFCTERIRFKDSQNGNVSSFSTTFVFAIHSQIPTLSGHGIAFVVAPTLGLPFALPSQYIGLFNISNNGNDTNHIFAVEFDTIQSSEFGDPNDNHVGIDLNGLRSANYSTAGYRDDHDKFQNLSLISRKRIQVWIDYDNRSHRIDVTVAPFDSDKPRKPLVSYVRDLSSILLEDMYVGFSSATGSVLSEHFLVGWSFRLNGEAPMLSLSKLPKLPRFEPRRIS . Reported glycan array binding signal (z-score)?
Reply: 0.154

Task item: # input binder: LCA (Lens culinaris), P02870 (protein) MASLQTQMISFYLIFLSILLTTIFFFKVNSTETTSFSITKFSPDQKNLIFQGDGYTTKGKLTLTKAVKSTVGRALYSTPIHIWDRDTGNVANFVTSFTFVIDAPSSYNVADEFTFFIAPVDTKPQTGGGYLGVFNSKEYDKTSQTVAVEFDTFYNAAWDPSNKERHIGIDVNSIKSVNTKSWNLQNGERANVVIAFNAATNVLTVTLTYPNSLEEENVTSYTLNEVVPLKDVVPEWVRIGFSATTGAEFAAHEVHSWSFHSELGGTSSSKQAADA ; wanted: its glycan array binding signal (z-score)
Reply: -0.211

Task item: Please report the recorded glycan array binding signal (z-score) for Cohesin-hMARCO (Homo sapiens) (protein) LDDLDAVRIKVDTVNAKPGDTVRIPVRFSGIPSKGIANCDFVYSYDPNVLEIIEIEPGDIIVDPNPDKSFDTAVYPDRKIIVFLFAEDSGTGAYAITKDGVFATIVAKVKEGAPNGLSVIKFVEVGGFANNDLVEQKTQFFDGGANVGDTTEPATPTTPVTTPTTTDDLDAASVRIVGSSNRGRAEVYYSGTWGTICDDEWQNSDAIVFCRMLGYSKGRALYKVGAGTGQIWLDNVQCRGTESTLWSCTKNSWGHHDCSHEEDAGVECSVHHHHHH .
Reply: -0.309
